Experiment: Pharmacokinetic study, 4ET-03-009 at 20 mg/kg oral
Assay type: in vivo, CD-1 male mice
Settings: male, CD-1, mouse, plasma, oral, 20 mg/kg, 0.083 hours, read-out: Plasma Conc. (per mouse n = 3)
VALUE_TYPE: concentration at 0.083 hours (ng/mL)
Provide the reading as a plain figure in ng/mL.

-- ask Give the reported concentration at 0.083 hours for this compound. Cc1cc(Nc2cc(NC(=O)C3CC3)ncn2)c(=O)n2c1C(=O)NC21CCOCC1
-- reply 304

----------
Test: Pharmacokinetic study, 4ET-03-009 at 20 mg/kg oral
Type: in vivo, CD-1 male mice
Conditions: male, CD-1, mouse, plasma, po, 20 mg/kg, for the study
VALUE_TYPE: AUC(0-inf) (ng·h/mL)
Provide the reading as a plain figure in ng·h/mL.

-- ask Give the reported AUC(0-inf) for this molecule. Cc1cc(Nc2cc(NC(=O)C3CC3)ncn2)c(=O)n2c1C(=O)NC21CCOCC1
-- reply 2260

----------
Experiment: Pharmacokinetic study, 4ET-03-009 at 20 mg/kg oral
Assay type: in vivo, CD-1 male mice
Details: male, CD-1, mouse, plasma, oral, 20 mg/kg, 0.5 hours, read-out: Plasma Conc. (per mouse n = 3)
VALUE_TYPE: concentration at 0.5 hours (ng/mL)
Provide the reading as a plain figure in ng/mL.

-- ask Give the reported concentration at 0.5 hours for this compound. Cc1cc(Nc2cc(NC(=O)C3CC3)ncn2)c(=O)n2c1C(=O)NC21CCOCC1
-- reply 666

----------
Test: Pharmacokinetic study, 4ET-01-021 with IV and PO dosing
Assay type: in vivo, CD-1 male mice
Settings: male, CD-1, mouse, plasma, iv, 1 mg/kg, IV 1.0 mg/kg; read-out: total systemic exposure (AUCinf)
VALUE_TYPE: AUC(0-inf) (ng·h/mL)
Provide the reading as a plain figure in ng·h/mL.

-- ask Give the reported AUC(0-inf) for this compound. CCC1=CC2(CCC1)NC(=O)c1c(C)cc(Nc3cc(N)ncn3)c(=O)n12 (stereo not shown) [Compound 4ET-01-021]
-- reply 2420

----------
Experiment: Liver microsome stability, human
Format: in vitro ADME
Details: liver microsomes
Each entry below lists one item and its recorded microsomal CLint value.
# output: number + unit

INSERT INTO results (molecule, value_type, value_measured) VALUES
  ('Cc1cc(Nc2cc(NCCN3CCOCC3)ncn2)c(=O)n2c1C(=O)NC21CCCCC1', 'microsomal CLint', '5.64 µL/min/mg'),
  ('Cc1cc(Nc2cc(N)ncn2)c(=O)n2c1C(=O)NC21CCCCC1 [eFT508, reference compound]', 'microsomal CLint', '1.88 µL/min/mg'),
  ('Cc1cc(Nc2cc(NC(=O)C(C)C)ncn2)c(=O)n2c1C(=O)NC21CCCC1', 'microsomal CLint', '0.77 µL/min/mg'),
  ('Cc1cc(Nc2cc(NCCNS(C)(=O)=O)ncn2)c(=O)n2c1C(=O)NC21CCCCC1', 'microsomal CLint', '1.25 µL/min/mg'),
  ('Cc1cc(Nc2cc(NC(=O)C3CC3)ncn2)c(=O)n2c1C(=O)NC21CCOCC1', 'microsomal CLint', '2.16 µL/min/mg'),
  ('Cc1cc(Nc2cc(NCCO)ncn2)c(=O)n2c1C(=O)NC21CCCCC1', 'microsomal CLint', '2.51 µL/min/mg'),
  ('Cc1cc(Nc2cc(N)ncn2)c(=O)n2c1C(=O)NC2(C)C', 'microsomal CLint', '1.93 µL/min/mg'),
  ('Cc1cc(Nc2cc(NC(=O)CN3CCOCC3)ncn2)c(=O)n2c1C(=O)NC21CCCCC1', 'microsomal CLint', '6.42 µL/min/mg');

-- ask Give the reported microsomal CLint for this molecule. Cc1cc(Nc2cc(NC(=O)C3CC3)ncn2)c(=O)n2c1C(=O)NC21CCCCC1
-- reply 2.31 µL/min/mg

-- ask Give the reported microsomal CLint for this molecule. Cc1cc(Nc2cc(N)ncn2)c(=O)n2c1C(=O)NC21CCOCC1
-- reply 2.17 µL/min/mg

----------
Experiment: Pharmacokinetic study, 4ET-03-009 at 20 mg/kg oral
Assay type: in vivo, CD-1 male mice
Conditions: male, CD-1, mouse, plasma, po, 20 mg/kg, Mean (n = 3)
VALUE_TYPE: MRT inf (h)
Provide the reading as a plain figure in h.

-- ask Give the reported MRT inf for this molecule. Cc1cc(Nc2cc(NC(=O)C3CC3)ncn2)c(=O)n2c1C(=O)NC21CCOCC1
-- reply 3.59

----------
Test: Brain vs plasma concentration, 4ET-03-009 at 10 mg/kg
Type: in vivo, mice
Conditions: CD-1, mouse, brain homogenate, oral, 10 mg/kg, 10 mg/kg oral, 2 hours after dosing, Brain, individual; read-out: Tissue Homogenate Conc. n = 3
VALUE_TYPE: concentration at 2 hours
# output: number + unit

-- ask Give the reported concentration at 2 hours for this compound. Cc1cc(Nc2cc(NC(=O)C3CC3)ncn2)c(=O)n2c1C(=O)NC21CCOCC1
-- reply 7.67 ng/mL

----------
Experiment: Pharmacokinetic study, 4ET-03-009 at 20 mg/kg oral
Type: in vivo, CD-1 male mice
Settings: male, CD-1, mouse, plasma, oral, 20 mg/kg, 24 hours, read-out: Plasma Conc. (per mouse n = 3)
VALUE_TYPE: concentration at 24 hours (ng/mL)
Provide the reading as a plain figure in ng/mL.

-- ask Give the reported concentration at 24 hours for this compound. Cc1cc(Nc2cc(NC(=O)C3CC3)ncn2)c(=O)n2c1C(=O)NC21CCOCC1
-- reply 2.75

----------
Assay: Pharmacokinetic study, 4ET-01-021 with IV and PO dosing
Type: in vivo, CD-1 male mice
Settings: male, CD-1, mouse, plasma; IV 1.0 mg/kg, mean of 3 animals
VALUE_TYPE: AUC(0-t) (µg·h/mL)
Provide the reading as a plain figure in µg·h/mL.

-- ask Give the reported AUC(0-t) for this molecule. CCC1=CC2(CCC1)NC(=O)c1c(C)cc(Nc3cc(N)ncn3)c(=O)n12 (stereo not shown)
-- reply 2.19

----------
Experiment: Liver microsome stability, human
Format: in vitro ADME
Conditions: liver microsomes, read-out: Human liver microsomes t1/2
Binary classification by half-life, with 9 h as an inclusive lower bound for 1 (yes); all other cases are 0 (no).

Completed entries (count: 2):
INSERT INTO assay_data (compound, group_label) VALUES
  ('Cc1cc(Nc2cc(NCCNS(C)(=O)=O)ncn2)c(=O)n2c1C(=O)NC21CCCCC1', '1 (yes)'),
  ('Cc1cc(Nc2cc(N)ncn2)c(=O)n2c1C(=O)NC21CCC(O)CC1 (centres unmarked)', '0 (no)');

Here is the next item to consider.
-- ask # bool: half-life of Cc1cc(Nc2cc(N)ncn2)c(=O)n2c1C(=O)NC21CCCCC1 [eFT508, reference compound] >= 9 h
-- reply 1 (yes)

----------
System: eIF4E phosphorylation at Serine 209 in the human embryonic kidney (HEK) 293 cell line
Assay: eIF4E phosphorylation in HEK 293 cells (fluorescent plate reader)
Type: cell-based
Details: Homo sapiens, HEK293, 2 h, eIF4E phosphorylation at Serine 209, 2 hours exposure
VALUE_TYPE: IC50 (nM)
Provide the reading as a plain figure in nM.

Worked cases, IC50 given:
INSERT INTO measurements (compound, value_type, unit_of_measurement, value_measured) VALUES
  ('Cc1cc(Nc2cc(NCCN3CCOCC3)ncn2)c(=O)n2c1C(=O)NC2(C)C [Compound 4ET-03-003]', 'IC50', 'nM', 110),
  ('Cc1cc(Nc2cc(NC(=O)C(C)C)ncn2)c(=O)n2c1C(=O)NC21CCOCC1 [Compound 4ET-03-008]', 'IC50', 'nM', 52.6),
  ('Cc1cc(Nc2cc(NC(=O)C3CC3)ncn2)c(=O)n2c1C(=O)NC21CCOCC1 [Compound 4ET-03-009]', 'IC50', 'nM', 1.7),
  ('Cc1cc(Nc2cc(NC(=O)C3CC3)ncn2)c(=O)n2c1C(=O)NC2(C)c1cccc(Cl)c1 (stereo not shown) [Compound 4ET-03-035]', 'IC50', 'nM', 8.7),
  ('Cc1cc(Nc2cc(N)ncn2)c(=O)n2c1C(=O)NC21CCOCC1 [Compound 4ET-01-002]', 'IC50', 'nM', 18.5),
  ('Cc1cc(Nc2cc(NC(=O)C3CC3)ncn2)c(=O)n2c1C(=O)NC21CCOc2ccc(Cl)cc21 (stereo not shown) [Compound 4ET-03-036]', 'IC50', 'nM', 8.6);

-- ask Give the reported IC50 for this compound. CCC1=CC2(CCC1)NC(=O)c1c(C)cc(Nc3cc(N)ncn3)c(=O)n12 (stereo not shown) [Compound 4ET-01-021]
-- reply 6

----------
Assay: Brain to plasma ratio, 4ET-01-021 at 3.0 mg/kg PO
Format: in vivo, male CD-1 mouse
Details: male, CD-1, mouse, 2 h post dosing, Brain, read-out: Mean tissue/plasma concentration ratio (B:P ratio)
VALUE_TYPE: Kp at 2 h
Write no unit; give the number alone.

-- ask Give the reported Kp at 2 h for this molecule. CCC1=CC2(CCC1)NC(=O)c1c(C)cc(Nc3cc(N)ncn3)c(=O)n12 (stereo not shown) [Compound 4ET-01-021]
-- reply 0.142
